assay: HepG2 cytotoxicity, primary screen, cytotoxicity control for P. falciparum antimalarial project, cell-based, ATP luminescence (AID 2303); conditions: HepG2 viability, 24-48 h, at 10 µM
Activity calls are given as the source filed them.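 Rule for the calls: active = inhibition above 50%; inactive = the rest.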
Would you mind answering with one of these outcomes? T (active), F (inactive)

Outcome? CCCNC(=O)C1CCN(C(c2ccccc2)c2ccc(Cl)c(Cl)c2)CC1 (stereo not drawn)
F

Outcome? COc1ccc2ncc(F)c(CCN3C[C@H](CNCc4ccc5c(c4)OCCO5)[C@H](O)C3)c2n1
F

Outcome? CCc1cn(CCS(C)(=O)=O)c2ccc(C(=O)N[C@@H](Cc3ccccc3)[C@H](O)CNC(C)(C)CCCC(C)C)cc12
F

Outcome? Cc1ccc(C)c(NC(=O)Nc2ccc(Nc3nc(C)cc(N4CCOCC4)n3)cc2)c1
T

Outcome? O=C(Nc1ccc2c(c1)CN(Cc1ccc(N3CCCC3)o1)CCC2)c1ccoc1
F

Outcome? COc1ccc2nccc(NCC3(O)CCC(NCc4ccc5c(n4)NC(=O)CS5)CC3)c2n1 (stereo not drawn)
F

Outcome? COc1cc(NC(=O)c2ccc3c(=O)n(Cc4ccccc4)c(=S)[nH]c3c2)cc(OC)c1OC
F

Outcome? COc1ccc(Nc2nccc(-c3ccc4c(-c5ccsc5)cnc(N)c4c3)n2)cc1
F

Outcome? CC(C)(C)OC(=O)NCc1ccc(Nc2nnc(-c3ccc(OCC(=O)NCc4ccc(C(C)(C)C)cc4)c([N+](=O)[O-])c3)o2)cc1
F

Outcome? Cc1cccc2[nH]c(-c3ccc(-c4ccc(NC(=O)NCc5cccc(F)c5)cc4)cc3)nc12
F

Outcome? S=C(NN=Cc1ccccn1)NC1C[C@H]2C=C[C@@H]1C2 (stereo partly drawn)
T

Outcome? COc1cc2c(cc1C(F)(F)F)N(C(=O)Nc1cc(Br)cc(-c3cccnc3)c1)CC2
F

Outcome? CCN(CC)CCCNc1ncc2c(-c3ccc(NC(=O)Nc4cc(C(F)(F)F)ccc4F)cc3)nn(C)c2n1
T

Outcome? COc1ccccc1CCNC(=O)c1cc(Br)cc(N2CCN(c3ccncc3)CC2)c1
F

Outcome? Cc1nc(-c2ccc(-c3ccc(C(=O)Nc4ccc(C(C)C)c(OCCN(C)C)c4)cc3)c(C)c2)no1
F

Outcome? COc1cc(C)nc2ccc(NC(=O)c3cc(C(F)(F)F)cc(C(F)(F)F)c3)cc12
F

Outcome? Cc1ccccc1C1CCN(C2CCC(NC(=O)/C=C/c3cc(C(F)(F)F)ccc3F)CC2)CC1 (stereo not drawn)
T

Outcome? NC(=O)c1cc2nc(Nc3ccc(F)cc3)nc(Nc3ccc(S(N)(=O)=O)cc3)c2[nH]1
F

Outcome? COc1ccc2nccc([C@@H](O)CN3CCC(NCc4cc5cccc(OC)c5o4)CC3)c2c1
F

Outcome? O=C(NCCN1CCC(NC(=O)c2ccc(-c3ccccn3)s2)CC1)c1ccc(Cl)c(Cl)c1
F

Outcome? Cc1cccc2[nH]c(-c3cccc(-c4ccc(NC(=O)c5cnccc5C(F)(F)F)cc4)c3)nc12
T

Outcome? COc1ccc(NC(=O)c2cccc(Br)c2)cc1N1CCN(CCCCCCCN2CCN(c3cc(NC(=O)c4cccc(Br)c4)ccc3OC)CC2)CC1
T

Outcome? Cc1ccc(NC(C)C(=O)Nc2ccccc2)cc1S(=O)(=O)N1CCCCCC1 (stereo not drawn)
F

Outcome? Fc1cccc(Cn2ncc3cc(Nc4ncnc5sc(C#Cc6ncc[nH]6)cc45)ccc32)c1
F

Outcome? COc1ccc2c(NN=Cc3ccncc3)ccnc2c1
F

Outcome? CCCN1CCC(c2c[nH]c3ccc(NC(=O)Nc4cccc(Cl)c4Cl)cc23)CC1
F

Outcome? COc1ccc(-c2cccc(NC(=O)c3cccc(C#N)c3)c2)cc1CN(C)CCO
F

Outcome? CCOc1cc(C(=O)NCCN(C(C)C)C(C)C)ccc1-c1nc2ccc(Cl)cc2[nH]1
F

Outcome? Cc1cc(N[C@@H](Cc2ccccc2)C(=O)NCc2cccs2)nc(NCC2CCCCC2)n1
F

Outcome? c1ccc2[nH]c(-c3ccc(-c4ccc(CNCCc5ccncc5)cc4)s3)nc2c1
F

Outcome? CC(C)(O)CC(C)(C)c1cc(Cl)ccc1O
F

Outcome? CC(=O)N(C)C1CCN(Cc2cccc(-c3ccc(-c4nc5ccc(F)cc5[nH]4)cc3)c2)C1 (stereo not drawn)
F

Outcome? Cc1c(C)n(C2CCCC2)c2ncnc(OC3CCN(CC(=O)NCC4CC4)CC3)c12
F

Outcome? COc1cc2nc(NCCc3ccccc3)nc(NCc3nccs3)c2cc1OC
F

Outcome? CCNc1cc(C(=O)N[C@@H](Cc2ccc(F)c(F)c2)[C@H](O)CNC2CCCCC2)cc(N2CCCCS2(=O)=O)c1
F

Outcome? COc1cccc(-c2cc(-c3ccc(NC(=O)c4ccccc4)cc3)c3c(N)ncnc3n2)c1
F

Outcome? CCCOc1cc(OCCC)cc(-c2cc(=O)c3ccccc3[nH]2)c1
F

Outcome? NC1CCN(Cc2ccc(-c3ccc(-c4nc5ccccc5[nH]4)cc3)cc2)C1 (stereo not drawn)
F
